B1: KCNG1 (parent)
chain: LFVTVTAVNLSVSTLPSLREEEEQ

Variants of: B1
method-description: protein stability index of a GFP-peptide fusion (GPS, HEK-293T) (PSI 1-6); higher = more stable;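 further: lentivirally expressed fusions sorted by FACS into six bins by GFP to DsRed ratio, PSI derived from sequencing read proportions per bin multiplied by bin number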
test-conditions: c terminus: a fixed tail appended
measurement-label: protein stability index
Number, no unit, nothing else.

Answered examples (2):
variant_descriptor=V12F value_observed=2.17
variant_descriptor=V5Q value_observed=3.94

Next variant, please.
Data request, read-out protein stability index, for "L18M"
3.35

Origin of the recorded values: the supplement of paper PMC10567573
